Biological target: NRAS WT (Homo sapiens (Human), UniProt P01111+P62937)
Sequence (P01111 whole entry): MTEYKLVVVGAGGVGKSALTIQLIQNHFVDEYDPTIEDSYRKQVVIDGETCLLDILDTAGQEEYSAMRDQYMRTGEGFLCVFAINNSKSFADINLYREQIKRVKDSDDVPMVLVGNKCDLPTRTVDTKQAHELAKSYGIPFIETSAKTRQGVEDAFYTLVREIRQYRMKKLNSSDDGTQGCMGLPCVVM
Sequence (P62937 whole entry): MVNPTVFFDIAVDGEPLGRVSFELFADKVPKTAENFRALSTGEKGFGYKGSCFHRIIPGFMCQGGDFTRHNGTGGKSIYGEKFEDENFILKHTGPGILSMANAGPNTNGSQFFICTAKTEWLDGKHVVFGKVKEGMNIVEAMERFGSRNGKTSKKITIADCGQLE
Test: Ras-Raf (BRAF RBD) disruption / FRET / MOA assay, NRAS WT
Type: biochemical
Conditions: read-out: IC50* NRAS WT FRET data
METRIC_NAME: IC50

# COMPOUND, SUBJECT_OF_TEST, METRIC_NAME, RESULT
data = [
    ("C=CC(=O)N1CC[C@H](C(=O)N(C)[C@H](C(=O)N[C@H]2Cc3cc(sn3)-c3ccc4c(c3)c(c(-c3cccnc3[C@H](C)OC)n4CC)CC(C)(C)COC(=O)[C@@H]3CCCN(N3)C2=O)C(C)C)C1 (atropisomer, axis not shown) [Example A340]", "NRAS WT (Homo sapiens (Human), UniProt P01111+P62937)", "IC50", "100 to 1000 nM"),
    ("C=CC(=O)N1CC[C@H](C(=O)N(C)[C@H](C(=O)N[C@H]2Cc3cccc(c3)-c3ccc4c(c3)c(c(-c3cccnc3[C@H](C)OC)n4CC)CC(C)(C)COC(=O)[C@@H]3CCCN(N3)C2=O)C(C)C(F)(F)F)C1 (stereo partly shown) [Example A641]", "NRAS WT (Homo sapiens (Human), UniProt P01111+P62937)", "IC50", "1000 to 10000 nM"),
    ("C=CC(=O)N1CC[C@@H]2[C@H](C1)CN2C(=O)N(C)[C@H](C(=O)N[C@H]1Cc2nc(cs2)-c2ccc3c(c2)c(c(-c2cccnc2[C@H](C)OC)n3CC)CC(C)(C)COC(=O)[C@@H]2CCCN(N2)C1=O)C(C)C (atropisomer, axis not shown) [Example A688]", "NRAS WT (Homo sapiens (Human), UniProt P01111+P62937)", "IC50", "100 to 1000 nM"),
    ("CCn1c(-c2cccnc2[C@H](C)OC)c2c3cc(ccc31)-c1csc(n1)C[C@H](NC(=O)[C@H](C(C)C)N(C)C(=O)N(C)C1CN(C(=O)/C=C/[C@H]3CCCN3C)C1)C(=O)N1CCC[C@H](N1)C(=O)OCC(C)(C)C2 (atropisomer, axis not shown) [Example A729]", "NRAS WT (Homo sapiens (Human), UniProt P01111+P62937)", "IC50", "100 to 1000 nM"),
]
